Target: T1, BMPRIa receptor-Fc fusion (UniProt P36894 24-152, limits assumed)
T1 construct: also called ALK-3
T1 sequence (P36894 24-152 limits assumed): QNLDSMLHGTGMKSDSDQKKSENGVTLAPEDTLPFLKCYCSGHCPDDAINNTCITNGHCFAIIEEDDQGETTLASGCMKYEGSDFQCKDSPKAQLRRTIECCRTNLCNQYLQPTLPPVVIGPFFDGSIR
Assay: ELISA-like plate assay, captured BMP-7 from conditioned media, receptor-Fc detection
Below, each of the binders is paired with its reported BMPRIa binding (relative to wild type = 1.0) value.

binder	reported
BMP-7 variant L21D (ligand, In conditioned media; numbering on mature BMP-7) STGGKQRSQNRSKTPKNQEADRMASVAENSSSDQRQACKKHELYVSFRDLGWQDWIIAPEGYAAYYCEGECAFPLNSYMNATNHAIVQTLVHFINPETVPKPCCAPTQLNAISVLYFDDSSNVILKKYRNMVVRACGCH	1.01 relative to wild type
BMP-7 variant K39S (ligand, In conditioned media; numbering on mature BMP-7) STGGKQRSQNRSKTPKNQEALRMASVAENSSSDQRQACSKHELYVSFRDLGWQDWIIAPEGYAAYYCEGECAFPLNSYMNATNHAIVQTLVHFINPETVPKPCCAPTQLNAISVLYFDDSSNVILKKYRNMVVRACGCH	2.77 relative to wild type
BMP-7 variant S77P (ligand, In conditioned media; numbering on mature BMP-7) STGGKQRSQNRSKTPKNQEALRMASVAENSSSDQRQACKKHELYVSFRDLGWQDWIIAPEGYAAYYCEGECAFPLNPYMNATNHAIVQTLVHFINPETVPKPCCAPTQLNAISVLYFDDSSNVILKKYRNMVVRACGCH	0.58 relative to wild type
BMP-7 variant Y128K (ligand, In conditioned media; numbering on mature BMP-7) STGGKQRSQNRSKTPKNQEALRMASVAENSSSDQRQACKKHELYVSFRDLGWQDWIIAPEGYAAYYCEGECAFPLNSYMNATNHAIVQTLVHFINPETVPKPCCAPTQLNAISVLYFDDSSNVILKKKRNMVVRACGCH	1.4 relative to wild type
BMP-7 variant F93T (ligand, In conditioned media; numbering on mature BMP-7) STGGKQRSQNRSKTPKNQEALRMASVAENSSSDQRQACKKHELYVSFRDLGWQDWIIAPEGYAAYYCEGECAFPLNSYMNATNHAIVQTLVHTINPETVPKPCCAPTQLNAISVLYFDDSSNVILKKYRNMVVRACGCH	0.77 relative to wild type

With those in mind, consider the next binder.
Respond only with BMPRIa binding (relative to wild type = 1.0) recorded for BMP-7 variant I94Q (ligand, In conditioned media; numbering on mature BMP-7) STGGKQRSQNRSKTPKNQEALRMASVAENSSSDQRQACKKHELYVSFRDLGWQDWIIAPEGYAAYYCEGECAFPLNSYMNATNHAIVQTLVHFQNPETVPKPCCAPTQLNAISVLYFDDSSNVILKKYRNMVVRACGCH
0.74 relative to wild type
